These data points were gathered from patent US20160185837A1.

ASSAYED SYSTEM: rat GLP-1 receptor (rat) (UniProt P32301)
Sequence (P32301 22-463): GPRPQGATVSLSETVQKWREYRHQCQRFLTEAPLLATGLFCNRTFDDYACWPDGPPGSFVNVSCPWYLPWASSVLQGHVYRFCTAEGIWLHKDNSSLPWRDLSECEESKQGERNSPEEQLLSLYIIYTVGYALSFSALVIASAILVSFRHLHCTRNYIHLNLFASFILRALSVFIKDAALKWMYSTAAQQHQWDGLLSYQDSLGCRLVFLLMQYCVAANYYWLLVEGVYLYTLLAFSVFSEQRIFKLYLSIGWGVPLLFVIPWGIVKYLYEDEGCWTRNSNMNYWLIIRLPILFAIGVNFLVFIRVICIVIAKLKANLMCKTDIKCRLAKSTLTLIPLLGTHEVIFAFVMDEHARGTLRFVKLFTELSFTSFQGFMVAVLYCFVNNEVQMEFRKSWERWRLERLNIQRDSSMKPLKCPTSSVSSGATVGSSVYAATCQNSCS
TEST DETAILS: cell-based or functional assay
RECORDED ENDPOINT: cAMP EC50 (nM)

Some solved cases for reference:
IP359 (Fc fusion) YSEGTFTSDYSKLLEEEAVRLFIEHLLAGGGGGGSGGGGSGGGGSGGGGSATHTCPPC: 0.04
IP373 (Fc fusion) YSEGTHTSDFSKLLERQAIDEFIAWLLKGGAAAGGSGSTASSGSGSATGGGGAATHTCPPC: 0.9
IP385 (Fc fusion) YSEGTFTSDYSIYLDRQAIDEFIAWLLKGGGGGGGSGGGGSGGGGSGGGGSACPPC: 0.16

[A] IP306 (Fc fusion) YSEGTFTSDYSKLLERQAIDEFIAWLLKGGAAAGGSGSTASSGSGSATGGGGAATHTCPPC
[B] IP321 (Fc fusion) YSEGTFISDYSIAMDKIHQQDFVNWLLAGGAAAGGSGSTASSGSGSATGGGGAATHTCPPC
[C] IP310 (Fc fusion) YSEGTFTSDVSSYMERQAIDEFIAWLLKGKAAAGGSGSTASSGSGSATGGGGAATHTCPPC
[D] IP366 (Fc fusion) YSEGTFTSDYRMLKERQAIDEFIAWLLKGGAAAGGSGSTASSGSGSATGGGGAATHTCPPC
Incoming: Parameters: sort_field (cAMP EC50), sort_dir (desc). Give the labels in the order requested.
Outgoing: B, D, C, A

[P] IP380 (Fc fusion) YSEGTFTSDYSKLLEEEAVRLFIEFLLAGGGGGGSGGGGSGGGGSGGGGSATHTCPPC
[Q] IP289 (Fc fusion) YSEGTFTSDYSKLLEKEAERLFIEWLLKGPGGGGGSGGGGSGGGGSGGGGSATHTCPPC
[R] IP342 (Fc fusion) YSEGTFTSDYSAAAEAAAAAAFAAWLAAAAGGGGGSGGGGSGGGGSGGGGSACPPC
Incoming: Parameters: sort_field (cAMP EC50), sort_dir (desc). Give the labels in the order requested.
Outgoing: R, Q, P
(R: 23 nM, Q: 0.23 nM, P: 0.031 nM)
